assayed system: Tgo-H4 (RT-H4) DNA polymerase V93Q;I114T;D141A;E143A;S383K;E429G;F445L;A485L;F493V;Y496H;Y497M;Y499F;A500E;K501N;I521L;E664K;K726R;N735K (UniProt P56689)
Sequence: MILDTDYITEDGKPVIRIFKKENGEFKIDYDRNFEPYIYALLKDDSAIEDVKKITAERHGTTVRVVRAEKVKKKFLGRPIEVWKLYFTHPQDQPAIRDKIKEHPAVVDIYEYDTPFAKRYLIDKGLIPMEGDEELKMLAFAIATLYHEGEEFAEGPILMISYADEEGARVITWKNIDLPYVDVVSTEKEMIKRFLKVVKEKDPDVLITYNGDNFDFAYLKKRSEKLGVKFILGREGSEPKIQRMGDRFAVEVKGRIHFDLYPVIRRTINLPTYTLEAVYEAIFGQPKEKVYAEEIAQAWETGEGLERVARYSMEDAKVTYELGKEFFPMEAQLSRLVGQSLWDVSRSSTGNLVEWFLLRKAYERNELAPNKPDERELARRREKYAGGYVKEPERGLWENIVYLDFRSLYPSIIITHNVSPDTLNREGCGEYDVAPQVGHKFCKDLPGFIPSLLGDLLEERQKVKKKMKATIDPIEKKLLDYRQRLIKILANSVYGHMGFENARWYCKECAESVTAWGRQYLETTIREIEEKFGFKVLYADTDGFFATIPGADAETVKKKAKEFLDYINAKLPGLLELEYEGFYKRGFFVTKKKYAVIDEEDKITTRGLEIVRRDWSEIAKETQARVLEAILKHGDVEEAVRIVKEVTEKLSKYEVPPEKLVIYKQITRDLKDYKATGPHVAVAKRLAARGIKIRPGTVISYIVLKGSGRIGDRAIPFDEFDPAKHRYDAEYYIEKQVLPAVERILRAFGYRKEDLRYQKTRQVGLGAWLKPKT
experiment: fluorescence polarization
condition parameters: template fully HNA (1,5-anhydrohexitol nucleic acid); primer DNA; FP: 1x ThermoPol (20 mM Tris-HCl, 10 mM (NH4)2SO4, 10 mM KCl, 2 mM MgSO4, 0.1% Triton X-100, pH 8.8), 25 C, 20 min, 5 nM labeled primer
readout: Kd (nM)
Answers are plain numbers, in nM.

[ask] May I ask what Kd has been recorded for GACCACGGCC / AACTGTGGCCGTGGTC [DNA primer/HNA template (FP)] ?
[reply] 61.5

###

assayed system: KOD-H4 DNA polymerase V93Q;I114T;D141A;E143A;S383K;K429G;F445L;A485L;Y493V;Y496H;Y497M;Y499F;A500E;R501N;I521L;E664K;K726R;N735K (Thermococcus kodakarensis KOD?) (UniProt D0VWU9)
Sequence: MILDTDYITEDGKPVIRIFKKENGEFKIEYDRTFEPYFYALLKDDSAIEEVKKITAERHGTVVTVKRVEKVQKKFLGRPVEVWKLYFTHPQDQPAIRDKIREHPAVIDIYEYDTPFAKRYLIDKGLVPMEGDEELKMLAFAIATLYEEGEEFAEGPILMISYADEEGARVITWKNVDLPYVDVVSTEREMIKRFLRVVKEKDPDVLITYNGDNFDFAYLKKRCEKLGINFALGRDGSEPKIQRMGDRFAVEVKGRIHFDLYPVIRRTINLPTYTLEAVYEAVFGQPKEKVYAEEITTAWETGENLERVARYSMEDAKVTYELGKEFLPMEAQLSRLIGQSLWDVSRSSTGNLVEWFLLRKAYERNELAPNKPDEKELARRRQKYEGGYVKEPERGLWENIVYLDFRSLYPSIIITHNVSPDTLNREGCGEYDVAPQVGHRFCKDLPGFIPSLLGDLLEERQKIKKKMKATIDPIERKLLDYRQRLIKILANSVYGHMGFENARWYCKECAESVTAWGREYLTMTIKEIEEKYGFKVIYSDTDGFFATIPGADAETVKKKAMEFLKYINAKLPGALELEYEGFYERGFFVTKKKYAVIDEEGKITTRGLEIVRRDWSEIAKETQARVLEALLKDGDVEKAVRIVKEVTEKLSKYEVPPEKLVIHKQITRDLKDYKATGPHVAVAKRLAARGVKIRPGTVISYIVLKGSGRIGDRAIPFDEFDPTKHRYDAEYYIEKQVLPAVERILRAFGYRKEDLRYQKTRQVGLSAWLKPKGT
experiment: fluorescence polarization
condition parameters: template fully HNA (1,5-anhydrohexitol nucleic acid); primer DNA; FP: 1x ThermoPol (20 mM Tris-HCl, 10 mM (NH4)2SO4, 10 mM KCl, 2 mM MgSO4, 0.1% Triton X-100, pH 8.8), 25 C, 20 min, 5 nM labeled primer
readout: Kd (nM)
One number for each entry, in nM.

[ask] Requested field: Kd. Item: GACCACGGCC / AACTGTGGCCGTGGTC [DNA primer/HNA template (FP)]
[reply] 80.2
